# C-term IgG per entry
- target-or-system: T1, B3GNT2 (Homo sapiens, UniProt Q9NY97)
- T1 construct: The respective ORFs of candidate genes [CD274 (NM_014143), MCL1 (NM_021960), JUNB (NM_002229), and B3GNT2 (NM_006577)] were synthesized; expressed in transfected cells; host or cells: A375 melanoma cells (lentiviral ORF overexpression)
- T1 sequence (Q9NY97 1-397): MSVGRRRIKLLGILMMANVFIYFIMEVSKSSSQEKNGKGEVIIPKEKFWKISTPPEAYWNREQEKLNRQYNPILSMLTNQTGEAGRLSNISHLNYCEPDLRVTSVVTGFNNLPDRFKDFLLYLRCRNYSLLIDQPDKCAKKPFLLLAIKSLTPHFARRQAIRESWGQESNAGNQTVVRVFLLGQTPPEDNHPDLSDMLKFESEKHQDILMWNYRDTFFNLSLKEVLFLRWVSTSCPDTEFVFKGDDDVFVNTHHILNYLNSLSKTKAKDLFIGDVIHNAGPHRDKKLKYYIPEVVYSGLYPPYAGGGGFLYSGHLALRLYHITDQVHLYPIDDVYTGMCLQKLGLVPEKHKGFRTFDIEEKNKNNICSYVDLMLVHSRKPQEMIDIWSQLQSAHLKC
- assay-comment: Co-IP of FLAG-tagged B3GNT2 followed by mass spectrometry
- Format: cell-based
- Set-up: unit not given here
- condition-notes: Co-IP with IgG control antibody, C-terminally FLAG-tagged B3GNT2; mass spectrometry count, unit not given
property-label: C-term IgG

{"molecule": "SLC25A4 (protein) GDHAWSFLKDFLAGGVAAAVSKTAVAPIERVKLLLQVQHASKQISAEKQYKGIIDCVVRIPKEQGFLSFWRGNLANVIRYFPTQALNFAFKDKYKQLFLGGVDRHKQFWRYFAGNLASGGAAGATSLCFVYPLDFARTRLAADVGKGAAQREFHGLGDCIIKIFKSDGLRGLYQGFNVSVQGIIIYRAAYFGVYDTAKGMLPDPKNVHIFVSWMIAQSVTAVAGLVSYPFDTVRRRMMMQSGRKGADIMYTGTVDCWRKIAKDEGAKAFFKGAWSNVLRGMGGAFVLVLYDEIKKYV", "val": 0}
{"molecule": "FAM3A (protein) FPRIQQLFTSPESSVTAAPRARKYKCGLPQPCPEEHLAFRVVSGAANVIGPKICLEDKMLMSSVKDNVGRGLNIALVNGVSGELIEARAFDMWAGDVNDLLKFIRPLHEGTLVFVASYDDPATKMNEETRKLFSELGSRNAKELAFRDSWVFVGAKGVQNKSPFEQHVKNSKHSNKYEGWPEALEMEGCIPRRSTAS", "val": 0}
{"molecule": "PRDX2 (protein) ASGNARIGKPAPDFKATAVVDGAFKEVKLSDYKGKYVVLFFYPLDFTFVCPTEIIAFSNRAEDFRKLGCEVLGVSVDSQFTHLAWINTPRKEGGLGPLNIPLLADVTRRLSEDYGVLKTDEGIAYRGLFIIDGKGVLRQITVNDLPVGRSVDEALRLVQAFQYTDEHGEVCPAGWKPGSDTIKPNVDDSKEYFSKHN", "val": 0}
